- Tested on: ACHN renal
- test.description: NCI tumour cell line growth inhibition, 48 h
Items are presented alongside their recorded TGI.

COc1ccc(C(=O)C(CC2C(=O)CC(C)(C)C(C(=O)C(=O)Nc3c(C)cccc3C)C2=O)c2ccc(OC)cc2)cc1 (configuration not stated) ... > 100 µM
Nc1ccc(-c2nc3ccccc3s2)cc1F ... 74.4 µM
COC(=O)C(CCSc1ccccc1)C(=O)OC ... > 100 µM
Cc1cc2c(=O)c3ccccc3oc2c(C#N)c1C ... > 100 µM
COC(=O)c1cn(CCCCO)nn1 ... > 100 µM

So what's the measured TGI for this one? `CC(=O)O[C@H]1CC[C@@]2(C)C(=CC[C@H]3[C@@H]4C/C(=C\c5ccncc5)[C@H](OC(C)=O)[C@@]4(C)CC[C@@H]32)C1` 33.6 µM

Any idea what TGI was measured for CCC[CH2][Ge]([CH2]CCC)([CH2]CCC)[O]C(=O)C(OC(C)=O)c1ccccc1 (configuration not stated) ? 19.8 µM

Item CN1CC(S(=O)(=O)c2ccccc2)CC(S(=O)(=O)c2ccccc2)C1c1ccccc1 (configuration not stated) has what recorded TGI? 26.9 µM

Which TGI value belongs to `O=C1Cc2c(-c3ccccc3)cc(-c3ccc4ccccc4c3)nc2-c2ccccc2N1` ? > 100 µM

Which TGI reading was recorded for the compound `Cc1cccc2c1NC(=O)C2(c1ccc(O)cc1)c1ccc(O)cc1` ? > 100 µM

Hey, just so you know, these numbers are from PubChem BioAssay (NCI).
